Data origin, for the record: patent US20220017636A1

system_tested: T1, KEA peptide complexed with HLA-A*02:01 on T2 cells (human)
T1 construct: whole, on cells
protocol_description: flow cytometry, peptide-loaded T2 cells;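 also: binding of single-chain Fv antibody constructs, raised in XenoMouse, to peptide-pulsed T2 cells measured by flow cytometry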
In this section we review reported Signal/background values for a set of binders.
quantity: Signal/background

INSERT INTO results (binder, value_observed) VALUES
  ('18081-H11 (scFv, scFv in bacterial lysate, detected with anti-Flag M2) scFv: EVQLLESGPALVKPTQTLTLTCTFSGFSFTTHKMGVDWIRQPPGKALEWLALIYWNDDKRYSPSLQSRLTITKDTSKNQVVLTMTNMDPVDTATYYCAYRRYNWNYENWFDPWGQGTLVTVSSGGGGSGGGGSGGGGSELQMTQSPSSLSASVGDRVTITCQASQDISNYLNWYQQKPGKAPKLLIYAASSLQSGVPSRFSGSGSGTDFTLTISSLQPEDFATYYCQQSYTTPFTFGPGTKVEIK', 0.9),
  ('18182-A4 (scFv, scFv in bacterial lysate, detected with anti-Flag M2) scFv: EVQLLESGGGVVQPGRSLRLSCAASGFTFSSYAMTWVRQAPGQGLEWVSSISGSGGGTYYAASVKGRFTISRDNSKNTLYLQMNSLRAEDTAVYYCATGKGVHLGFDYWGQGTLVTVSSGGGGSGGGGSGGGGSELVLTQPPSVSVAPGQTARITCGGNNIGSKSVHWYQQKPGQAPVLVVYDDNDRPSGIPERFSGSNFGNTATLIISRVAAGDEADYYCQVWDSSSDHVVFGGGTKLTVL', 0.9),
  ('18182-H12 (scFv, scFv in bacterial lysate, detected with anti-Flag M2) scFv: EVQLLESGGGLVQPGGSLRLSCAASGFTFSSYAMSWVRQAPGKGLEWVSTISGSGGGTYYADSVKGRFTISRDNSKNTLYLQMNSLRAEDTAVYYCATGKGVHLGFDYWGQGTLVTVSSGGGGSGGGGSGGGGSELMLTQPHSVSVAPGQTARITCGGNNIGSKSVHWYQQKPGQAPVLVVYDDNDRPSGIPERFSGSNFGNTATLIISRVEAGDEADYYCQVWDSSSDHVVFGGGTKLTVL', 0.9),
  ('18182-E5 (scFv, scFv in bacterial lysate, detected with anti-Flag M2) scFv: EVQLLESGGGLVQPGGSLRLSCAASGFTFSSYAMSWVRQAPGKGLEWVSTISGSGGGTYYADSVKGRFTISRDNSKNTLYLQMNSLRAEDTAVYYCATGKGVHLGFDYWGQGTLVTVSSGGGGSGGGGSGGGGSELVLTQPPSVSVAPGQTARITCGGNNIGSKSVHWHQQKPGQAPVLVVYDDNDRPSGIPERFSGSNSGNTATLTISRVEAGDEADYYCQVWDYSSDHVVFGGGTKLTVL', 0.9),
  ('18182-B12 (scFv, scFv in bacterial lysate, detected with anti-Flag M2) scFv: EVQLLESGGGLVQPGGSLRLSCAASGFTFSSYAMSWVRQAPGKGLEWVSAISGSGGGTYYADSVKGRFTISRDNSKNTLYLQMSSLRAEDTAVYYCATGKGVHLGFDYWGQGTLVTVSSGGGGSGGGGSGGGGSELVLTQPPSVSVAPGQTARITCGGNNIGSKSVHWHQQKPGQAPVLVVYDDNDRPSGIPERFSGSNSGNTATLTISRVEAGDEADYYCQVWDYSSDHVVFGGGTKLTVL', 0.9),
  ('18181-G10 (scFv, scFv in bacterial lysate, detected with anti-Flag M2) scFv: EVQLLESGPGLVKPSQTLSLTCTVSGDSISSNPYYWSWIRQLPGKGLEWIGYISYSGSTFYNPSLKSRVTISVDTSKNQFSLNLTSVTAADTAVYYCARDRLWFGVLNYYYGMDVWGLGTTVTVSSGGGGSGGGGSGGGGSELVMTQSPLSLPVTPGEPASISCRSSQSLLHSTGYNYVDWYLQKPGQSPQLLIYLGSNRASGVPDRFSGSGSGTDFTLKISRVEAEDVGFYYCMQALQTPRTFGQGTKVEIK', 1),
  ('18179-D11 (scFv, scFv in bacterial lysate, detected with anti-Flag M2) scFv: EVQLLESGGGLVKPGGSLRLSCAASGFTFSNAWMSWVRQAPGKGLEWVGRIKGNTYGGTTDYAAPVKGRFTISRDDSKNTLFLQMNSLKTEDTAVYYCTTPSYSGSYYNYFSVMDVWGQGTTVTVSSGGGGSGGGGSGGGGSELQMTQSPSSLSASVGDRVTITCRTSQSISSYLNWYQQKPGRAPKLLIFAASSLQGGVPSRFSGSGSGTDFTLTISSLQPEDFATYYCQQTYSMPFTFGPGTKVDIK', 1),
  ('18179-E1 (scFv, scFv in bacterial lysate, detected with anti-Flag M2) scFv: EVQLLESGGGLVQPGGSLRLSCAASGFTFSNAWMSWVRQAPGKGLEWVGRIKGNTYGGTTDYAAPVKGRFTISRDDSKNTLYLQMNSLKTEDTAVYYCTTPSYSGSYYNYFSVMDVWGQGTTVTVSSGGGGSGGGGSGGGGSELVMTQSPSSLSASVGDRVTITCRTSQSISSYLNWYQQKPGRAPKLLIFAASSLQGGVPSRFSGSGSGTDFTLTISSLQPEDFATYYCQQTYSMPFTFGPGTKVDIK', 1),
  ('18182-H9 (scFv, scFv in bacterial lysate, detected with anti-Flag M2) scFv: EVQLLESGGGLVQPGGSLRLSCAASGFTFSSHAMSWVRQAPGKGLEWVSAISGSGGGTYYADSVKARFTISRDNSKNTLYLQMNSLRAEDTAVYYCATGKGVHLGFDYWGQGTLVTVSSGGGGSGGGGSGGGGSELVLTQPPSVSVAPGQTARITCGGNNIGSKSVHWHQQKPGQAPVLVVYDDNDRPSGIPERFSGSNSGNTATLTISRVEAGDEADFYCQVWDSSSDHVVFGGGTKLTVL', 1),
  ('18181-F3 (scFv, scFv in bacterial lysate, detected with anti-Flag M2) scFv: EVQLLESGGGLVQPGGSLRLSCAASGFTFSNAWMSWVRQAPGKGLEWVGRIKGNTYGGTTDYAAPVKGRFTISRDDSKNTLFLQMNSLKTEDTAVYYCTTPSYSGSYYNYFSVMDVWGQGTTVTVSSGGGGSGGGGSGGGGSELVMTQSPSSLSASVGDRVTITCRTSQSISSYLNWYQQKPGRAPKLLIFAASSLQGGVPSRFSGSGSGTDFTLTISSLQPEDFATYYCQQSYSSPFTFGPGTKVEIK', 1);
